Reported log10 IC50 is given for each of the following compounds.
TEST DESCRIPTION: Compound was evaluated for the inhibition of platelet aggregation, assessed turbidimetrically in citreated human platelet rich plasma (PRP)
Hello, just confirming the data are log10 of IC50 with units of µM.

Some compounds with recorded log10 IC50:
SUBSTANCE SMILES	log10 IC50
O=C(O)CCC/C=C\CC1=CCC[C@@H]1NS(=O)(=O)c1ccc(F)cc1	0.64
O=C(O)CC/C=C\C[C@@H]1[C@@H](CNS(=O)(=O)c2ccc(Cl)cc2)CC[C@H]1F	0.26

What value of log10 IC50 has been recorded for this entry: O=C(O)CC/C=C\CC1=CCC[C@@H]1NS(=O)(=O)c1ccc(Cl)c(Cl)c1
0.28

Entry O=C(O)CCC/C=C\C[C@H]1[C@H](F)CC[C@@H]1NS(=O)(=O)c1ccc(Cl)cc1 has what log10 IC50?
-1.15

# query: log10 IC50 of entry O=C(O)COCCCCC1=CCC[C@@H]1NS(=O)(=O)c1ccc(F)cc1
0.30

---

TEST DESCRIPTION: Compound was evaluated for the inhibition of platelet aggregation, assessed turbidimetrically in citreated human platelet rich plasma (PRP)
PROPERTY: pIC50
The quantity pIC50 is defined as the negative base-10 logarithm of the molar concentration.

Return reported pIC50; argument: O=C(O)COCCCCC1=CCC[C@@H]1CNS(=O)(=O)c1ccc(F)cc1
6.70

Dear colleague, I am looking for the recorded pIC50 of the following molecule: O=C(O)CC/C=C\C[C@H]1[C@H](F)CC[C@@H]1NS(=O)(=O)c1ccccc1
5.70

Any idea what pIC50 was measured for O=C(O)COCCCC[C@H]1[C@H](F)CC[C@@H]1NS(=O)(=O)c1ccccc1[N+](=O)[O-] ?
5.26

---

TEST DESCRIPTION: Compound was evaluated for the inhibition of platelet aggregation, assessed turbidimetrically in citreated human platelet rich plasma (PRP)
Measured IC50 by item
Express it in nM; write the number only.

Below: 2 molecules and their reported IC50.
SUBSTANCE SMILES	IC50, nM
O=C(O)CCC/C=C\C[C@H]1[C@H](F)CC[C@@H]1NS(=O)(=O)c1ccc(F)cc1F	200
O=C(O)CC/C=C\C[C@H]1[C@H](F)CC[C@@H]1NS(=O)(=O)c1ccc(Cl)c(Cl)c1	1700

I'd like to know its IC50. The molecule in question is Cc1ccc(S(=O)(=O)N[C@H]2CCC=C2C/C=C\CCCC(=O)O)cc1
250

Item O=C(O)CC/C=C\C[C@@H]1[C@@H](CNS(=O)(=O)c2ccc(F)cc2)CC[C@@H]1F has what recorded IC50?
650

Could you tell me which IC50 is on file for Cc1ccc(S(=O)(=O)N[C@H]2CC[C@@H](F)[C@@H]2CCCCOCC(=O)O)cc1 ?
1800

Bench note: what IC50 did O=C(O)CCC/C=C\C[C@H]1[C@H](F)CC[C@@H]1NS(=O)(=O)c1ccccc1 show?
1100

Please give the measured IC50 for this molecule: O=C(O)CC/C=C\CC1=CCC[C@@H]1NS(=O)(=O)c1ccccc1[N+](=O)[O-]
600

---

Entries annotated with measured IC50
TEST DESCRIPTION: Compound was evaluated for the inhibition of platelet aggregation, assessed turbidimetrically in citreated human platelet rich plasma (PRP)
The answer is to be given in nM; state only the numeric part.

Endpoint output: IC50 of O=C(O)CCC/C=C\CC1=CCC[C@@H]1CNS(=O)(=O)c1ccc(F)cc1 . Value?
1700

What does the record list as IC50 for O=C(O)COCCCCC1=CCC[C@@H]1NS(=O)(=O)c1ccccc1 ?
2000
